Cited source for all entries: patent US10131652B2

# Test system: waterhemp (common waterhemp, Amaranthus rudis)
# PROTOCOL_SUMMARY: Test D pre-/postemergence plant response
# Format: in vivo
# ASSAY_CONDITIONS: Postemergence, 125 g ai/ha; scale 0 to 100, 0 no effect, 100 complete control
Below, each of the molecules is paired with its reported Plant response rating, Waterhemp value.

| SMI | Plant response rating, Waterhemp |
| --- | --- |
| Fc1cccc(Oc2ncc(Br)cn2)c1-c1cc(C(F)F)on1 | 98 |
| Cn1nnc(-c2ccccc2Oc2ncc(Br)cn2)n1 | 40 |
| FCc1cc(-c2c(F)cccc2Oc2ncc(Cl)cn2)no1 | 98 |
| FC(F)(Cl)c1cc(-c2ccccc2Oc2ncc(Cl)cn2)no1 | 100 |
| Clc1cnc(Oc2ccccc2-c2ccon2)nc1 | 30 |
| FC(F)(F)c1cc(-c2c(Br)cccc2Oc2ncc(Cl)cn2)no1 | 85 |
| FCc1cc(-c2c(Br)cccc2Oc2ncc(Cl)cn2)no1 | 65 |
| Fc1ccc(Oc2ncc(Cl)cn2)c(-c2cc(C(F)F)on2)c1F | 90 |
| Fc1ccc(Oc2ncc(Cl)cn2)c(-c2cc(C(F)F)on2)c1Cl | 100 |
| FC(F)c1cc(-c2c(Cl)cccc2Oc2ncc(Cl)cn2)no1 | 98 |
